# System: LLC-MK2 cells
# procedure.summary: toxicity after incubation for 5 days in LLC-MK2 cells
# Type: cell-based
# condition.notes: read-out: Toxicity CC50 LLC-MK2
Entries and their CC50 values follow.
Write your answer as a measured quantity: the number, then the unit.

Nc1nc2c(ncn2[C@H]2C[C@H](O)[C@@H](CO)O2)c(=S)[nH]1 [6-Thio-dG, 6-Thio-20-Deoxyguanosine] | 68 µM

Q: So what's the measured CC50 for this one? Nc1ncnc2c1c(I)cn2[C@@H]1O[C@H](CO)[C@@H](O)[C@H]1O [5-Iodotubercidin]
Ans: 45.6 µM

* * *

# Test system: HCoV-OC43
# procedure.summary: anti-coronavirus CPE inhibition assay
# Type: cell-based
# condition.notes: read-out: EC50 HCoV-OC43 (CPE inhibition); HCT-8, MOI 0.1, 5 days, MTS
Entries and their EC50 values follow.
Express your answer in µM, writing the number without its unit.

Nc1ncnc2c1c(I)cn2[C@@H]1O[C@H](CO)[C@@H](O)[C@H]1O | 1.56

Please find the next compound below.
Q: So what's the measured EC50 for this one? Nc1nc2c(ncn2[C@H]2C[C@H](O)[C@@H](CO)O2)c(=S)[nH]1
Ans: 6.5

* * *

# Test system: HEK293T cells
# procedure.summary: cell toxicity assay, CCK-8 kit
# Type: cell-based
# condition.notes: HEK293T, 24 h, CCK-8
readout.kind: CC50 (µM)
Express your answer in µM, writing the number without its unit.

Q: So what's the measured CC50 for this one? Nc1ncnc2c1c(I)cn2[C@@H]1O[C@H](CO)[C@@H](O)[C@H]1O
Ans: 59.5

* * *

Entries and their Ratio (12 + 14/12) values follow.
# target: SARS-CoV-2 RdRp in the presence of nsp14 and nsp10 (Severe acute respiratory syndrome coronavirus 2)
# procedure.summary: cell-based CoV-RdRp-Gluc system with nsp10/nsp14 proofreading function
# condition.notes: EC50 with nsp14/nsp10 over EC50 without
Respond numerically, and do not add a unit to the figure.

Nc1nc2c(ncn2[C@H]2C[C@H](O)[C@@H](CO)O2)c(=S)[nH]1 | 8.04

Q: So what's the measured Ratio (12 + 14/12) for this one? Nc1nc(F)nc2c1ncn2[C@@H]1O[C@H](COP(=O)(O)O)[C@@H](O)[C@@H]1O [Fludarabine Phosphate]
Ans: 7.19

Q: Now give it for Nc1nc(F)nc2c1ncn2[C@@H]1O[C@H](CO)[C@@H](O)[C@@H]1O too.
Ans: 11.53

Q: Now give it for Nc1ncnc2c1c(I)cn2[C@@H]1O[C@H](CO)[C@@H](O)[C@H]1O too.
Ans: 1.89

* * *

# procedure.summary: toxicity after incubation for 5 days in HCT-8 cells
# Format: cell-based
# condition.notes: human, HCT-8 cells
readout.kind: CC50 at 5 days (µM)
Express your answer in µM, writing the number without its unit.

Nc1nc(F)nc2c1ncn2[C@@H]1O[C@H](COP(=O)(O)O)[C@@H](O)[C@@H]1O [Fludarabine Phosphate] | 37.5

Q: So what's the measured CC50 at 5 days for this one? Nc1nc(F)nc2c1ncn2[C@@H]1O[C@H](CO)[C@@H](O)[C@@H]1O
Ans: 40.4

* * *

Entries and their TI (CC50/EC50) values follow.
# target: SARS-CoV-2 RdRp (Severe acute respiratory syndrome coronavirus 2)
# condition.notes: CC50 HEK293T / RdRp EC50
Respond numerically, and do not add a unit to the figure.

Examples with answers:
Nc1nc(F)nc2c1ncn2[C@@H]1O[C@H](CO)[C@@H](O)[C@@H]1O | 50.58
Nc1nc(F)nc2c1ncn2[C@@H]1O[C@H](COP(=O)(O)O)[C@@H](O)[C@@H]1O [Fludarabine Phosphate] | 70.15

Q: So what's the measured TI (CC50/EC50) for this one? Nc1ncnc2c1c(I)cn2[C@@H]1O[C@H](CO)[C@@H](O)[C@H]1O
Ans: 79.28

* * *

# System: HCT-8 cells
# procedure.summary: toxicity after incubation for 5 days in HCT-8 cells
# Type: cell-based
# condition.notes: read-out: Toxicity CC50 HCT-8; incubation for 5 days
readout.kind: CC50 (µM)
Express your answer in µM, writing the number without its unit.

Nc1ncnc2c1c(I)cn2[C@@H]1O[C@H](CO)[C@@H](O)[C@H]1O [5-Iodotubercidin] | 46.9

Please find the next compound below.
Q: So what's the measured CC50 for this one? Nc1nc2c(ncn2[C@H]2C[C@H](O)[C@@H](CO)O2)c(=S)[nH]1 [6-Thio-dG, 6-Thio-20-Deoxyguanosine]
Ans: 63

* * *

Entries and their CC50 at 24 h values follow.
# procedure.summary: cell toxicity assay, CCK-8 kit
# Assay type: cell-based
# condition.notes: human, HEK293T cells

Nc1nc(F)nc2c1ncn2[C@@H]1O[C@H](COP(=O)(O)O)[C@@H](O)[C@@H]1O [Fludarabine Phosphate] | 65.2 µM
CCC(CC)COC(=O)[C@H](C)N[P@](=O)(OC[C@H]1O[C@@](C#N)(c2ccc3c(N)ncnn23)[C@H](O)[C@@H]1O)Oc1ccccc1 | > 100 µM

Please find the next molecule below.
Q: So what's the measured CC50 at 24 h for this one? Nc1nc(F)nc2c1ncn2[C@@H]1O[C@H](CO)[C@@H](O)[C@@H]1O
Ans: 53.6 µM
